# measured.on: Non-receptor tyrosine-protein kinase TYK2 (Homo sapiens)
# particulars: at 0.1 µM;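 note: each value is a mean of the inhibition readings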
Each entry below carries its recorded inhibition.

| molecule | measured.on | inhibition [%] |
| --- | --- | --- |
| COc1ccc(-c2ccncc2)cc1C(N)=O | Non-receptor tyrosine-protein kinase TYK2 (Homo sapiens) | -2.48 |
| CC1=C(C(=O)Nc2ccc3[nH]ncc3c2)C(c2ccc(Cl)c(Cl)c2)CC(=O)N1 (stereo unspecified) | Non-receptor tyrosine-protein kinase TYK2 (Homo sapiens) | 0.3 |
| COc1cc2ncn(-c3cc(OCc4ccccc4Cl)c(C(N)=O)s3)c2cc1OC | Non-receptor tyrosine-protein kinase TYK2 (Homo sapiens) | 2.29 |
| Cn1cc(C=C2C(=O)Nc3cccnc32)c2ccccc21 | Non-receptor tyrosine-protein kinase TYK2 (Homo sapiens) | -0.05 |
| Cc1cccc(-c2n[nH]cc2-c2ccc3ncccc3n2)n1 | Non-receptor tyrosine-protein kinase TYK2 (Homo sapiens) | -0.15 |
| NS(=O)(=O)c1ccc(N/N=C2\C(=O)Nc3ccc(C(=O)NCCc4c[nH]cn4)cc32)cc1 | Non-receptor tyrosine-protein kinase TYK2 (Homo sapiens) | -1.79 |
| O=C1NC(=O)C(c2cccc(Cl)c2)=C1Nc1ccc(O)c(Cl)c1 | Non-receptor tyrosine-protein kinase TYK2 (Homo sapiens) | 3.26 |
| CN1CCC(C(=O)Nc2n[nH]c3nnc(-c4ccccc4)cc23)CC1 | Non-receptor tyrosine-protein kinase TYK2 (Homo sapiens) | -3.53 |
| COc1cc(C=NNc2ncnc3c2cnn3-c2ccccc2)ccc1O | Non-receptor tyrosine-protein kinase TYK2 (Homo sapiens) | -0.09 |
| NCc1ccc(-c2nc(-c3ccc(Cl)c(O)c3)c(-c3ccncc3)[nH]2)cc1 | Non-receptor tyrosine-protein kinase TYK2 (Homo sapiens) | 1.75 |
| CCN1CCC(CC(=O)Nc2n[nH]c3nc(-c4cccs4)c(Br)cc23)CC1 | Non-receptor tyrosine-protein kinase TYK2 (Homo sapiens) | -2.72 |
| CCn1c(-c2nonc2N)nc2c(C#CC(C)(C)O)nc(OC[C@@H](N)c3ccccc3)cc21 | Non-receptor tyrosine-protein kinase TYK2 (Homo sapiens) | 2.72 |
| CCn1c(-c2nonc2N)nc2c(C#CC(C)(C)O)nc(CN3CCCC3)cc21 | Non-receptor tyrosine-protein kinase TYK2 (Homo sapiens) | 3.47 |
| O=C1Nc2ccc(C(=O)c3ccco3)cc2C1=Cc1cc(Cl)c(O)c(Cl)c1 | Non-receptor tyrosine-protein kinase TYK2 (Homo sapiens) | -3.77 |
| COc1cccc(-n2ncc3c(N/N=C/c4cccc(F)c4)ncnc32)c1 | Non-receptor tyrosine-protein kinase TYK2 (Homo sapiens) | -0.2 |
| CC1=C(C(=O)Nc2ccc3[nH]ncc3c2)C(c2ccc3ccccc3c2)CC(=O)N1 (stereo unspecified) | Non-receptor tyrosine-protein kinase TYK2 (Homo sapiens) | 0.09 |
| COc1cc2ncn(-c3cc(O[C@@H](C)c4ccccc4Cl)c(C(N)=O)s3)c2cc1OC | Non-receptor tyrosine-protein kinase TYK2 (Homo sapiens) | -2.87 |
| CCn1c(-c2nonc2N)nc2c(N3CCCC3)nccc21 | Non-receptor tyrosine-protein kinase TYK2 (Homo sapiens) | 2.25 |
| CC(C)=Cc1cccc2c1/C(=N/Nc1ccc(S(N)(=O)=O)cc1)C(=O)N2 | Non-receptor tyrosine-protein kinase TYK2 (Homo sapiens) | 3.75 |
| [O-][S+]1CCN(Cc2ccc(-c3ccc4ncnc(Nc5ccc(OCc6ccccc6)c(F)c5)c4c3)o2)CC1 | Non-receptor tyrosine-protein kinase TYK2 (Homo sapiens) | -3.81 |
| CCCN1CCC(Oc2cc(Nc3nc(Nc4cccc(F)c4C(N)=O)c4cc[nH]c4n3)c(OC)cc2Cl)CC1 | Non-receptor tyrosine-protein kinase TYK2 (Homo sapiens) | 0.33 |
